Target: KDM4A-F185A (Homo sapiens, UniProt O75164, F185A)
Construct: human KDM4A-jmjC domain (catalytic domain of KDM4A); 6xHis (N); host or cells: E. coli BL21 (DE3)
Sequence (O75164 142-308 F185A limits assumed): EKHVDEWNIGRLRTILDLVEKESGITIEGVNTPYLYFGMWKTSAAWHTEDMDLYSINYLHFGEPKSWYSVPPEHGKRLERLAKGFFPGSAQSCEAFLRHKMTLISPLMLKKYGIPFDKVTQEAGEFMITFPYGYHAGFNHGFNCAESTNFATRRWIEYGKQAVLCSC
Assay: Coupled fluorescence end-point assay for IC50
Format: biochemical
Conditions: time-dependent inhibition of F185A, 1 hour

>  <molecule>
CC(C)CC(NC(=O)C(=O)O)C(=O)O (stereo not shown) [compound 6, N-oxalyl leucine]

>  <system-name>
KDM4A-F185A (Homo sapiens, UniProt O75164, F185A)

>  <IC50>
700 nM

$$$$

* * *

Molecular target: KDM4A-F185A (Homo sapiens, UniProt O75164, F185A)
Construct: human KDM4A-jmjC domain (catalytic domain of KDM4A); 6xHis (N); host or cells: E. coli BL21 (DE3)
Assay: Coupled fluorescence end-point assay for IC50
Type: biochemical
Conditions: dose-dependent inhibition of F185A; 200 µM 2OG, 60 µM H3K9me3 peptide
measured-metric: IC50 (nM)

>  <molecule>
CC(C)CC(NC(=O)C(=O)O)C(=O)O (stereo not shown)

>  <system-name>
KDM4A-F185A (Homo sapiens, UniProt O75164, F185A)

>  <unit-info>
nM

>  <recorded-measurement>
700

$$$$
